# System: U2OS
# Method Description: Multiplex assay against U2OS
# Type: toxicity, cell-based
# Condition Details: human, 12 h, 10 µM, compound concentration 10 uM, replicate 2
Reported Property: Population Tubulin-Different-Phenotype (%)

# Molecule, Numeric Readout
rows = [
    ("O=C1NC(=O)C(c2cnc3ccccn23)=C1c1cn2c3c(cc(F)cc13)CN(C(=O)N1CCCCC1)CC2 [LY-2090314]", 96),
    ("COc1ccc(S(=O)(=O)N(CCO)c2ccccc2CN(C)C/C=C/c2ccc(Cl)cc2)cc1.O=P(O)(O)O", 12),
    ("COCC(=O)NC/C=C/c1ccc2ncnc(Nc3ccc(Oc4ccc(C)nc4)c(C)c3)c2c1 [CP-724714]", 100),
    ("CCn1c(=O)c(-c2ccc(-c3cncs3)cc2Cl)cc2cnc(Nc3ccc(N4CCN(C)CC4)cc3)nc21", 15),
    ("CN1CCN(C(=O)C(C)(C)c2ccc(C(=O)Nc3cn4cc(-c5cc(C(C)(C)C)cc(C(C)(C)C)c5)ccc4n3)cc2)CC1 [T3-CLK-N]", 31),
    ("Cc1ccc2nc(NCCN)c3ncc(C)n3c2c1.O=C(O)C(F)(F)F.O=C(O)C(F)(F)F", 22),
    ("Cc1cc(C)c(S(=O)(=O)N(Cc2ccc(-c3cccc(S(C)(=O)=O)c3)cc2)Cc2ccc(C(F)(F)F)o2)c(C)c1", 11),
    ("CN(C)C(=O)C(CCN1CCC(O)(c2ccc(Cl)cc2)CC1)(c1ccccc1)c1ccccc1.Cl [LOPERAMIDE HYDROCHLORIDE]", 100),
]
